- Species: Bos taurus
- ASSAY_INFO: Inhibition of [3H]colchicine binding to bovine brain tubulin at 5 uM after 10 mins by scintillation counting method relative to control
TEST_READOUT: inhibition (%)
Answers are plain numbers, in %.

Take each entry in turn and give its inhibition.
1. COc1ccc2c(c1)CCCC/C=C\2c1cc(OC)c(OC)c(OC)c1
2. COc1cc(/C2=C/CCCCc3c2ccc(OC)c3OC)cc(OC)c1OC
3. COc1ccc2c(c1O)CCCC/C=C\2c1cc(OC)c(OC)c(OC)c1
4. COc1ccc2c(c1O)CC=C2c1cc(OC)c(OC)c(OC)c1

Ans.
1. 29
2. 31
3. 78
4. 17
